molecular target: MyD88^TIR (Homo sapiens); construct: MyD88 (residues 148–296); 6xHis; made in house; host or cells: E. coli BL21 (DE3); experiment: T‐Surf phage library (P8 and P3) selection against MyD88^TIR, four rounds, NGS read counts; type: binding; settings: P3 library, 4R selection against MyD88, rank after grouping
For each entry below, report its P3_MyD88 Rank (after) value.
Numbers only.

// known answers, use as guide
KEVEGWRGALTKKASL
626
YSFTGQLHRYMVQRGV
649
LIRAPSVHDFRGFVGI
672
SSFREGLWRLLELRKN
588
EWILSKLSQHILKREK
632
DHHMDLTRGKAIKPEILG
616
NELVHVWSSKANTWW
628
SENYATSPWALMNWC
655

Would you mind giving P3_MyD88 Rank (after) for every sequence in the list below?
1. LQNQWKLALTNSGFHTFRDND
2. LVAHEITKKLKSFATI
3. SSFREGPWRLLELSKN
4. SSFREGVWRLPEMSTK
5. KLDSAMIIKVQRWREA
6. SENMRPARGRWMNWC

[585, 641, 609, 660, 618, 654]

Would you mind giving P3_MyD88 Rank (after) for every sequence in the list below?
1. NEWVNAWTSKANRRVG
2. YLKCGYPCFCDRLRFA
3. SSFREGLSRLPELSKK
4. NELVHVWRSKANRLVG
5. SREYASCSWALTELVH
6. DHHLNLPRGKSVKPEILG
7. EWMREQRRPALKERLP
8. LKAESCRQALEKSGKR

[602, 620, 589, 646, 647, 652, 599, 631]

Field P3_MyD88 Rank (after) (entry "SSFRERLWRLLELIKK" ) reads 644

* * *

For each entry below, report its P8_MyD88 Rank (before) value.
Target: MyD88^TIR (Homo sapiens)
Construct: MyD88 (residues 148–296); 6xHis; made in house; host or cells: E. coli BL21 (DE3)
Test: T‐Surf phage library (P8 and P3) selection against MyD88^TIR, four rounds, NGS read counts
Format: binding
Conditions: P8 library, selection against MyD88, rank before grouping
Experimental: T‐Surf libraries were screened against the immobilized TIR domains of two major human TLR adaptor proteins, MAL^TIR and MyD88^TIR, allowing cross‐species selection of TIR‐binding motifs with 190 946 TIR‐derived peptides in a single binding assay (Scheme 1). Enriched phage pools from the fourth round of selection were analyzed using NGS after barcoding the peptide‐coding regions of the phage pools. […]
Answers are plain numbers.

RNFVAYLFQALANKGI
3397
DPQDLQWFYECLVSLL
2911
DPQDLAWFYASQSSQM
2997
DPQDLAWFSERLVSQF
2728
WDFCEQYGTVLGSSVL
1569

Would you mind giving P8_MyD88 Rank (before) for every sequence in the list below?
1. WALVVLLQILHARELF
2. DPQDLEWFYERLLAR
3. LGYHWFDWVYFVGIED
4. FAANPLSFHVRVKLGG
5. VSHLIDAFERYGIMFFIDT
6. YAASMRWFGELAKIVG
7. DPQTLQSFYERLVSLI
8. YYDSRWALDELLKIL

[1403, 2879, 3329, 1303, 2260, 1710, 3027, 1678]

* * *

target: MyD88^TIR (Homo sapiens, UniProt Q99836); construct: MyD88 (residues 148–296); 6xHis; made in house; host or cells: E. coli BL21 (DE3); assay: T‐Surf phage library (P8 and P3) selection against MyD88^TIR, four rounds, NGS read counts; assay type: binding; settings: P8 library, 4R selection against MyD88, rank after grouping
Sequence (Q99836 148-296): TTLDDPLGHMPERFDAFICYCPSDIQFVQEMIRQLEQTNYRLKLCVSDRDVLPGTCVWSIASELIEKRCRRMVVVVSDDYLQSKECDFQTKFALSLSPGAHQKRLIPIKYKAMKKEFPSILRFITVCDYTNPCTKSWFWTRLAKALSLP
For each entry below, report its P8_MyD88 Rank (after) value.
Give bare numbers.

// known answers, use as guide
DPQDLDCFDERLGSRV
627
YNLAQYLHVSLMARGI
664
MVGGDTFHDFLDIISM
655
DPQEQVGICVRLMEAL
585
DPQDLARSYERLVRLF
610

Would you mind giving P8_MyD88 Rank (after) for every sequence in the list below?
1. DSVCLDRLLYSLHVTE
2. EYRNESKSVWDIINAI
3. GPQELEWCYERLVTKF
4. HWIDWVWDYLLPNLEGPAG

1. 582
2. 642
3. 604
4. 581

* * *

molecular target: MyD88^TIR (Homo sapiens, UniProt Q99836); construct: MyD88 (residues 148–296); 6xHis; made in house; host or cells: E. coli BL21 (DE3); test: T‐Surf phage library (P8 and P3) selection against MyD88^TIR, four rounds, NGS read counts; format: binding; conditions: P8_MyD88: rank by NGS read count before grouping
property.label: Rank (before)
One number for each entry.

ELDFSHFWLFDGQAGGAA
3182
DFSHFWLFEAGGDAD
2377
RGFLSHLRHHLQAKDH
3395

Would you mind giving Rank (before) for every sequence in the list below?
1. PQVVACFFQRLESMIL
2. VQWDELLQILHARELF
3. GLSWGPYEWWIDLYDA
4. DPQDLQWSYERLVSRI

3403
2249
2308
2939

Would you mind giving Rank (before) for every sequence in the list below?
1. DPQDHYLLYERLVSLF
2. YLLLRVLQTIFLRRTD

2964
1967

Would you mind giving Rank (before) for every sequence in the list below?
1. PQDLAWLYERPLSLIL
2. DWVWDYLLPNGRPSG
3. PQDLDWFYERLESLF
4. DPQGLVWLYERLFSQI

[3424, 2420, 3427, 2663]

Would you mind giving Rank (before) for every sequence in the list below?
1. DPPELDWFYERLFSLF
2. LGYHWIDWEYFVGIK
3. VANILGYHWFDWEYFVVIGD

[2627, 3264, 2171]

Would you mind giving Rank (before) for every sequence in the list below?
1. WDCASNMEQFWDLPYY
2. DPQDLDWFYETSGEPD

[1639, 2804]

* * *

target: MyD88^TIR (Homo sapiens); construct: MyD88 (residues 148–296); 6xHis; made in house; host or cells: E. coli BL21 (DE3); test: T‐Surf phage library (P8 and P3) selection against MyD88^TIR, four rounds, NGS read counts; type: binding; settings: P8_MyD88: rank by NGS read count after grouping
property.label: Rank (after)
Numbers only.

// known answers, use as guide
WALNELLKILQAKIFL
905
DPQERGCQYQRLVGML
902
DPPELDWFYERLFSLF
971

Would you mind giving Rank (after) for every sequence in the list below?
1. DPQDLDWFYERLVAC
2. DPQDLDWFYERQVRLF
3. DPHDLEWVYERLVSLF
4. DLLRHLIEAFSRMHIN

[1005, 915, 913, 940]

Would you mind giving Rank (after) for every sequence in the list below?
1. ELDFSHFWLFDAGGDAAI
2. LGYQWNDWEYFVGIED
3. LGYRWGDWEYFVGIEE
4. YASSSWYRFELVDILW
5. YKLALHFRVWRVGVSI
6. IAADHLSYLGRLLLSR
7. DPQDHYLLYERLVSLF
8. DYASSSWALDVLWNIF

1. 956
2. 957
3. 1017
4. 973
5. 883
6. 885
7. 934
8. 950

* * *

target: MAL^TIR (Homo sapiens, UniProt P58753); construct: MAL (residues 79–221); 6xHis; made in house; host or cells: E. coli BL21 (DE3); assay: T‐Surf phage library (P8 and P3) selection against MAL^TIR, four rounds, NGS read counts; assay type: binding; settings: P3_MAL: rank by count before grouping
Sequence (P58753 79-221): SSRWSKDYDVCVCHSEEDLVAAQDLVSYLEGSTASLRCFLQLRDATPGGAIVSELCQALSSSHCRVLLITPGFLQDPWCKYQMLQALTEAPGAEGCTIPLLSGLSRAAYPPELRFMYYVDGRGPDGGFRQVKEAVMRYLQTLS
property.label: Rank (before)

// known answers, use as guide
NQWRNAQTAAAKLSGW
3399
MSMRPGDRLQRSGI
2967
HQKGSYGEAPAEHEKR
2901
RGFLSHLHRYLVQRGV
250
SSLREVLWRLLELSKK
3204

Would you mind giving Rank (before) for every sequence in the list below?
1. DWFLSHLRHHLQAKDH
2. KLRAWRDALRNIANIF
3. YALTGQLHRYLVQRGV
4. SSFREGLWRLLELSNE
5. FMSHLYQGLKNRGIFTF

1. 779
2. 3626
3. 1485
4. 1027
5. 201

Would you mind giving Rank (before) for every sequence in the list below?
1. DWFLSKLSQHILKKG
2. RLLKWKEALHQFHSW
3. MRLPAICNVIWCSVA
4. PNLRTKVLHHLMRTKP
5. YAFTGHLQRYLLQRGV
6. FMSHLYQGLKNRGI

1892
436
2938
2706
1460
499

Would you mind giving Rank (before) for every sequence in the list below?
1. WFWEKLRYALTAAANLSGW
2. ERILNQLRRSSQSIAK

501
2078
